Origin of measurements: patent US20080194546A1

Please provide measured IC50 for the entries that follow.
subjectOfTest: recombinant mTOR (FLAG-tagged, amino acid residues 1362 to 2549) (Homo sapiens, UniProt P42345)
experimentSummary: Alternative Enzyme Assay: AlphaScreen, inhibition of phosphorylation by recombinant mTOR
Assay type: biochemical
measurementContext: Alternative Enzyme Assay, upper bounds; read-out: IC50 values against mTOR

mol	IC50
OCc1cccc(-c2nc(N3CCOCC3)c3ccc(-c4ccc(Cl)cc4)nc3n2)c1	< 1 µM
COc1ccc(-c2ccc3c(N4CCOCC4)nc(-c4cccc(C)c4)nc3n2)cc1CO	< 10 µM
Clc1ccc(-c2ccc3c(N4CCOCC4)nc(-c4ccco4)nc3n2)cc1	< 10 µM
N#Cc1cccc(-c2nc(N3CCOCC3)c3ccc(-c4ccc(Cl)cc4)nc3n2)c1	< 10 µM
C[C@@H]1CN(c2nc(N3CCOCC3)c3ccc(-c4ccc(OCC(C)(C)C)cc4)nc3n2)C[C@H](C)O1	< 1 µM

Parameters: items (list). Returns: IC50 for each item.
1. C[C@H]1COCCN1c1nc(N2CCOCC2)c2ccc(-c3ccc(Cl)cc3)nc2n1
2. CC(C)Oc1ccc(-c2ccc3c(N4CCOCC4)nc(N4C[C@@H](C)O[C@@H](C)C4)nc3n2)cc1

Result string:
1. < 10 µM
2. < 10 µM

Query string: So what does the record say about IC50 for COc1ccc(-c2ccc3c(N4CCOCC4)nc(-c4cccc(CO)c4)nc3n2)cc1CO ?
Result string: < 10 µM

====

subjectOfTest: mTOR (Homo sapiens, UniProt P42345)
Construct: mTOR protein was isolated from HeLa cell cytoplasmic extract by immunoprecipitation; endogenous in cells; host or cells: HeLa cell cytoplasmic extract (immunoprecipitate)
experimentSummary: Biological Assay: mTOR enzyme activity, mTOR immunoprecipitated from HeLa cell cytoplasmic extract, recombinant PHAS-1 as substrate
Format: biochemical
measurementContext: Biological Assay, upper bounds; read-out: IC50 values against mTOR
Please provide measured IC50 for the entries that follow.

// below: answered molecules
molecule	readoutLabel	val
C[C@@H]1CN(c2nc(N3CCOCC3)c3ccc(-c4ccc(C=O)s4)nc3n2)C[C@H](C)O1 [Example 1ap]	IC50	< 1000 nM
COc1ccc(-c2ccc3c(N4CCOCC4)nc(N4C[C@@H](C)O[C@@H](C)C4)nc3n2)cc1CNCCCCCNC(=O)OC(C)(C)C [Example 8as]	IC50	< 100 nM
C[C@@H]1CN(c2nc(N3CCOCC3)c3ccc(-c4ccc5c(c4)OCCO5)nc3n2)C[C@H](C)O1 [Example 1at]	IC50	< 1000 nM
C[C@@H]1CN(c2nc(N3CCOCC3)c3ccc(NS(C)(=O)=O)nc3n2)C[C@H](C)O1 [Example 6]	IC50	< 10000 nM
C=CCNc1ccc2c(N3CCOCC3)nc(N3C[C@@H](C)O[C@@H](C)C3)nc2n1 [Example 2am]	IC50	< 10000 nM

Parameters: items (list). Returns: IC50 for each item.
1. COc1ccc(-c2ccc3c(N4CCOCC4)nc(N4C[C@@H](C)O[C@@H](C)C4)nc3n2)cc1CNCC1CCCCC1O (stereo partly shown) [Example 8aa]
2. C[C@@H]1CN(c2nc(N3CCOCC3)c3ccc(Nc4nc[nH]c4C#N)nc3n2)C[C@H](C)O1 [Example 2ar]

Result string:
< 100 nM
< 1000 nM

====

Please provide measured IC50 for the entries that follow.
subjectOfTest: mTOR (Homo sapiens)
Construct: mTOR protein was isolated from HeLa cell cytoplasmic extract by immunoprecipitation; endogenous in cells; host or cells: HeLa cell cytoplasmic extract (immunoprecipitate)
experimentSummary: Biological Assay: mTOR enzyme activity, mTOR immunoprecipitated from HeLa cell cytoplasmic extract, recombinant PHAS-1 as substrate
Type: biochemical
measurementContext: Biological Assay, upper bounds; read-out: IC50 values against mTOR

// below: answered compounds
compound	val
COC(=O)c1ccc(Nc2ccc3c(N4CCOCC4)nc(N4C[C@@H](C)O[C@@H](C)C4)nc3n2)cc1	< 1000 nM
COc1ccc(-c2ccc3c(N4CCOCC4)nc(N4C[C@@H](C)O[C@@H](C)C4)nc3n2)cc1CNCc1ccc([35Cl])cc1[35Cl]	< 100 nM
COc1ccc(-c2ccc3c(N4CCOCC4)nc(N4C[C@@H](C)O[C@@H](C)C4)nc3n2)cc1CNCCc1cccs1	< 100 nM
C[C@@H]1CN(c2nc(N3CCOCC3)c3ccc(Nc4ccc5cccc(O)c5n4)nc3n2)C[C@H](C)O1	< 10000 nM
C[C@@H]1CN(c2nc(N3CCOCC3)c3ccc(Nc4ccc(Cl)cc4)nc3n2)C[C@H](C)O1	< 1000 nM

Parameters: items (list). Returns: IC50 for each item.
1. C[C@@H]1CN(c2nc(N3CCOCC3)c3ccc(-c4ccsc4)nc3n2)C[C@H](C)O1
2. C[C@@H]1CN(c2nc(N3CCOCC3)c3ccc(Nc4cccc5cnccc45)nc3n2)C[C@H](C)O1
3. C#CC1(NCc2cc(-c3ccc4c(N5CCOCC5)nc(N5C[C@@H](C)O[C@@H](C)C5)nc4n3)ccc2OC)CCCCC1

Result string:
1: < 100 nM; 2: < 10000 nM; 3: < 1000 nM

Parameters: items (list). Returns: IC50 for each item.
1. COc1ccc(-c2ccc3c(N4CCOCC4)nc(N4C[C@@H](C)O[C@@H](C)C4)nc3n2)cc1CNC1CCCC(C)C1C (some centres unmarked)
2. COc1ccc(-c2ccc3c(N4CCOCC4)nc(N4C[C@@H](C)O[C@@H](C)C4)nc3n2)cc1CNC(C)CC(C)C (some centres unmarked)

Result string:
1: < 100 nM; 2: < 1000 nM

Parameters: items (list). Returns: IC50 for each item.
1. COc1ccc(-c2ccc3c(N4CCOCC4)nc(N4C[C@@H](C)O[C@@H](C)C4)nc3n2)cc1CNC1CCCCC1
2. C[C@@H]1CN(c2nc(N3CCOCC3)c3ccc(-c4cncnc4)nc3n2)C[C@H](C)O1
3. C[C@@H]1CN(c2nc(N3CCOCC3)c3ccc(-c4ccc(C(=O)O)s4)nc3n2)C[C@H](C)O1
4. Cc1cccnc1Nc1ccc2c(N3CCOCC3)nc(N3C[C@@H](C)O[C@@H](C)C3)nc2n1

Result string:
1: < 100 nM; 2: < 10000 nM; 3: < 1000 nM; 4: < 10000 nM

====

Please provide measured IC50 for the entries that follow.
subjectOfTest: mTOR (Homo sapiens)
Construct: mTOR protein was isolated from HeLa cell cytoplasmic extract by immunoprecipitation; endogenous in cells; host or cells: HeLa cell cytoplasmic extract (immunoprecipitate)
experimentSummary: Biological Assay: mTOR enzyme activity, mTOR immunoprecipitated from HeLa cell cytoplasmic extract, recombinant PHAS-1 as substrate
Format: biochemical
measurementContext: Biological Assay, upper bounds; read-out: IC50 values against mTOR

mol	subjectOfTest	readoutLabel	val
Cc1cc(Nc2ccc3c(N4CCOCC4)nc(N4C[C@@H](C)O[C@@H](C)C4)nc3n2)no1	mTOR (Homo sapiens)	IC50	< 10 µM

Parameters: items (list). Returns: IC50 for each item.
1. C[C@@H]1CN(c2nc(N3CCOCC3)c3ccc(-c4ccc(C#N)cc4)nc3n2)C[C@H](C)O1
2. COc1ccc(-c2ccc3c(N4CCOCC4)nc(N4C[C@@H](C)O[C@@H](C)C4)nc3n2)cc1CNc1ccc(N2CCOCC2)cc1
3. C[C@@H]1CN(c2nc(N3CCOCC3)c3ccc(Nc4ccc(C5SCCS5)cc4)nc3n2)C[C@H](C)O1

Result string:
< 0.1 µM
< 1 µM
< 10 µM

====

subjectOfTest: recombinant mTOR (FLAG-tagged, amino acid residues 1362 to 2549) (Homo sapiens)
experimentSummary: Alternative Enzyme Assay: AlphaScreen, inhibition of phosphorylation by recombinant mTOR
Format: biochemical
measurementContext: Alternative Enzyme Assay; read-out: IC50 values against mTOR
pIC50: −log10 of the molar value.
Please provide measured pIC50 for the entries that follow.

// below: answered molecules
molecule	val
COc1ccc(-c2ccc3c(N4CCOCC4)nc(-c4cc(C(=O)O)cc([N+](=O)[O-])c4)nc3n2)cc1CO	> 6.52
C/C(=N/O)c1cccc(-c2ccc3c(N4CCOCC4)nc(N4C[C@@H](C)O[C@@H](C)C4)nc3n2)c1	> 6.52
COc1ccc(-c2ccc3c(N4CCOCC4)nc(-c4cccc(C#N)c4)nc3n2)cc1CO	> 6.52
C[C@H]1COCCN1c1nc(N2CCOCC2)c2ccc(-c3ccc(Cl)cc3)nc2n1	> 6.52
COc1ccc(-c2ccc3c(N4CCOCC4)nc(-c4cccc(C)c4)nc3n2)cc1CO	> 6.52

Parameters: items (list). Returns: pIC50 for each item.
1. COc1ccc(-c2ccc3c(N4CCOC[C@@H]4C)nc(-c4cccc(N)c4)nc3n2)cc1CO [Example 29f]
2. COc1ccc(-c2ccc3c(N4CCOCC4)nc(-c4cc(N)cc(C(=O)O)c4)nc3n2)cc1CO
3. COc1cccc(-c2nc(N3CCOCC3)c3ccc(-c4ccc(OC)c(CO)c4)nc3n2)c1
4. CC(C)Oc1ccc(-c2ccc3c(N4CCOCC4)nc(N4C[C@@H](C)O[C@@H](C)C4)nc3n2)cc1
5. COc1ccc(-c2ccc3c(N4CCOCC4)ncnc3n2)cc1CO
6. C[C@H]1COCCN1c1nc(N2CCOC[C@@H]2C)c2ccc(-c3cccc(Cl)n3)nc2n1 [Example 11v]
7. COc1ccc(-c2ccc3c(N4CCOCC4)nc(-c4cccc(N)c4)nc3n2)cc1CO
8. COc1ccc(-c2ccc3c(N4CCOC[C@@H]4C)nc(N4C[C@@H](C)O[C@@H](C)C4)nc3n2)cc1CO [Example 11b]

Result string:
["> 7.00", "> 6.52", "> 6.52", "> 6.52", "> 6.52", "> 6.52", "> 6.52", "> 7.00"]

Parameters: items (list). Returns: pIC50 for each item.
1. COc1ccc(-c2ccc3c(N4CCOCC4)nc(-c4cccc(O)c4)nc3n2)cc1CO
2. COc1ccc(-c2ccc3c(N4CCOCC4)nc(-c4cccc(CO)c4)nc3n2)cc1CO
3. COc1ccc(-c2ccc3c(N4CCOCC4)nc(-c4cccc([N+](=O)[O-])c4)nc3n2)cc1CO

Result string:
1. > 6.52
2. > 6.52
3. > 6.52
